- study system: Mcl-1 protein (UniProtKB primary accession number: Q07820) (Homo sapiens, UniProt Q07820)
- Sequence (Q07820 whole entry): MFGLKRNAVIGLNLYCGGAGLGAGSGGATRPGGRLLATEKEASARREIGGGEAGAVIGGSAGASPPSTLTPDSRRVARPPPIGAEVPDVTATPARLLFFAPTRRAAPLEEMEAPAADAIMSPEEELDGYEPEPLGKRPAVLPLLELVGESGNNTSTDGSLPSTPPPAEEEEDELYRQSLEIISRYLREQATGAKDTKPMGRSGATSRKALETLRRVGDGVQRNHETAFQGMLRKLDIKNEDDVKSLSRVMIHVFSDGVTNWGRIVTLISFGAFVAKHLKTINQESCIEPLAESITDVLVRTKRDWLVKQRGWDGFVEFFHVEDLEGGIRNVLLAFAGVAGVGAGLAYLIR
- protocol description: Inhibition of Mcl-1 by fluorescence polarisation, Method 1
- Format: binding
- run parameters: fluorescence polarisation; Method 1, or Method 2; read-out: IC50 (M) Mcl-1 FP
- Protocol: The relative binding potency of each compound was determined via Fluorescence Polarisation (FP). An 11 point serial dilution of each compound was prepared in DMSO and 2 μl transferred into flat bottomed, low binding, 384-well plate (final DMSO concentration 5%). […]
test readout: IC50 (M)

See these solved cases before continuing.
compound | readout number
Cc1c(-c2c(-c3cccc(F)c3)sc3ncnc(OC(Cc4ccccc4OC(C)C)C(=O)O)c23)ccc(OCCN2CCN(C)CC2)c1Cl (stereo not shown) | 3.2e-08
COc1ccccc1CC(Oc1ncnc2sc(-c3cc(F)c(F)c(F)c3)c(-c3ccc(OCCN4CCN(C)CC4)c(Cl)c3C)c12)C(=O)O (stereo not shown) | 1.8e-09
CC(=O)c1sc2ncnc(OC(Cc3ccccc3)C(=O)O)c2c1-c1ccc(OCCN2CCN(C)CC2)c(Cl)c1C (stereo not shown) | 7.5e-08
COc1ccccc1CC(Oc1ncnc2sc(-c3ccccc3F)c(-c3ccc(OCCN4CCN(C)CC4)c(Cl)c3C)c12)C(=O)O (stereo not shown) | 3e-08
COc1ccccc1CC(Oc1ncnc2sc(-c3ccc(C)cc3)c(-c3ccc(OCCN4CCN(C)CC4)c(Cl)c3C)c12)C(=O)O (stereo not shown) | 4.7e-08
CCc1sc2ncnc(OC(Cc3ccccc3)C(=O)O)c2c1-c1ccc(OCC(=O)N2CCOCC2)c(Cl)c1C (stereo not shown) | 4.1e-08
Cc1c(-c2c(-c3ccoc3)sc3ncnc(OC(Cc4ccccc4)C(=O)O)c23)ccc(OCCN2CCN(C)CC2)c1Cl (stereo not shown) | 6.2e-08
CC#Cc1sc2ncnc(OC(Cc3ccccc3OC)C(=O)O)c2c1-c1cc(C)c(OCCN2CCN(C)CC2)c(Cl)c1C (stereo not shown) | 5.5e-07
CCc1c(-c2c(-c3ccc(F)cc3)sc3ncnc(O[C@H](Cc4ccccc4OCc4ccnc(-c5ccccc5OC)n4)C(=O)O)c23)ccc(OCCN2CCN(C)CC2)c1Cl | 9.48e-10
COc1ccc(-c2sc3ncnc(OC(Cc4ccccc4OCc4ccnn4CC(F)(F)F)C(=O)O)c3c2-c2ccc(OCCN3CCN(C)CC3)c(Cl)c2C)cn1 (stereo not shown) | 9.6e-09

I: COc1ccccc1CC(Oc1ncnc2sc(-c3cccc(SC)c3)c(-c3ccc(OCCN4CCN(C)CC4)c(Cl)c3C)c12)C(=O)O (stereo not shown)
II: CC#Cc1sc2ncnc(OC(Cc3ccccc3OC)C(=O)O)c2c1-c1ccc(OCCN(C(C)C)C(C)C)c(Cl)c1C (stereo not shown)
Task for the reader: decide whether I or II has the larger IC50. Refer to your chosen entry by its label in the reply. I
(I: 5.9e-08 M, II: 3.9e-08 M)

* * *

- study system: Mcl-1 protein (UniProtKB primary accession number: Q07820) (Homo sapiens, UniProt Q07820)
- protocol description: Inhibition of Mcl-1 by fluorescence polarisation, Method 1
- Format: binding
- run parameters: fluorescence polarisation; Method 1, or Method 2; read-out: IC50 (M) Mcl-1 FP
test readout: IC50 (M)

See these solved cases before continuing.
molecule | endpoint unit | readout number
CCCCn1nccc1COc1ccccc1CC(Oc1ncnc2sc(C#N)c(-c3ccc(OCCN4CCN(C)CC4)c(Cl)c3C)c12)C(=O)O (stereo not drawn) | M | 8.4e-09
COc1ccccc1CC(Oc1ncnc2sc(-c3cccc(OC(F)(F)F)c3F)c(-c3ccc(OCCN4CCN(C)CC4)c(Cl)c3C)c12)C(=O)O (stereo not drawn) | M | 5.1e-07

A: Cc1sccc1-c1sc2ncnc(OC(Cc3ccccc3)C(=O)O)c2c1-c1ccc(OCCN2CCN(C)CC2)c(Cl)c1C (stereo not drawn)
B: Cc1c(-c2c(-c3ccc(F)o3)sc3ncnc(OC(Cc4ccc(F)cc4OCc4cnccn4)C(=O)O)c23)ccc(OCCN2CCN(C)CC2)c1Cl (stereo not drawn)
C: CCc1ccccc1-c1nccc(COc2ccccc2C[C@@H](Oc2ncnc3sc(-c4ccc(F)cc4)c(-c4ccc(OCCN5CCN(C)CC5)c(Cl)c4C)c23)C(=O)O)n1
D: CCc1ccc(-c2sc3ncnc(OC(Cc4ccccc4OC)C(=O)O)c3c2-c2ccc(OCCN3CCN(C)CC3)c(Cl)c2C)o1 (stereo not drawn)
Rank the 4 molecules: largest IC50 first, smallest last. Output spec: labels arranged per the requested ranking. A, D, B, C

Source: patent US9670227B2
